# Tested on: A-427
# TEST DETAILS: MTT test, cytotoxic activity on non-clonogenic cell lines
# Type: cell-based
# CONDITION CONTEXT: Homo sapiens, 10^−5 M, 72 hours of incubation, control condition = 100%, mean value, read-out: mean optical density as percentage of control, A-427
I'd be grateful if you could share measured viability at 10 µM for these entries.
// units = %; emit number, no label

"COc1ccc(-c2cn(C)c3cc(OC)cc(NCc4ccccc4)c3c2=O)cc1" yielded viability at 10 µM of 72.7

"COc1ccc(-c2c[nH]c3ccccc3c2=O)cc1" yielded viability at 10 µM of 77.5

"COc1ccc2c(=O)c(-c3ccccc3)c[nH]c2c1" yielded viability at 10 µM of 25.8

"COc1ccc(-c2c[nH]c3c(OC)cccc3c2=O)cc1" yielded viability at 10 µM of 102

"COc1ccc(-c2c[nH]c3c(OC)ccc(O)c3c2=O)cc1" yielded viability at 10 µM of 80.5

O=c1c(-c2ccccc2)c[nH]c2ccccc12 [CRL8326, 3-Phenyl-1,4-dihydro-4-quinolinone] yielded viability at 10 µM of 101

"COc1ccc(-c2cn(CCN(C)C)c3cc(OC)cc(OC)c3c2=O)cc1" yielded viability at 10 µM of 99.5

"COc1ccc(-c2cn(CCCC#N)c3cc(OC)cc(OC)c3c2=O)cc1" yielded viability at 10 µM of 102

"COc1ccc(-c2cn(C)c3cc(OC)cc(N4CCOCC4)c3c2=O)cc1" yielded viability at 10 µM of 115

"COc1ccc(-c2c[nH]c3c(OC)ccc(OC)c3c2=O)cc1" yielded viability at 10 µM of 33.7

"COc1ccc(-c2cn(C)c3c(OC)ccc(-c4ccccc4)c3c2=O)cc1" yielded viability at 10 µM of 19.4

"COc1cc(OC)c2c(=O)c(-c3ccccc3)c[nH]c2c1" yielded viability at 10 µM of 103

"COc1ccc(-c2cnc3c(OC)ccc(OC)c3c2OCCN(C)C)cc1" yielded viability at 10 µM of 76

"COc1ccc(-c2c[nH]c3cc(OC)cc(OC)c3c2=O)cc1" yielded viability at 10 µM of 106

"CCN(CC)C(=O)Cn1cc(-c2ccc(OC)cc2)c(=O)c2c(OC)cc(OC)cc21" yielded viability at 10 µM of 90.7

"COc1ccc(-c2cn(CC#N)c3c(OC)ccc(OC)c3c2=O)cc1" yielded viability at 10 µM of 73.3

"COc1ccc(-c2cn(C)c3cc(OC)cc(O)c3c2=O)cc1" yielded viability at 10 µM of 26.5

"COc1ccc(-c2cn(C)c3cc(OC)cc(N4CCCC4)c3c2=O)cc1" yielded viability at 10 µM of 110

"CCc1ccc(OC)c2c1c(=O)c(-c1ccc(OC)cc1)cn2C" yielded viability at 10 µM of 82.2

"COc1ccc(-c2c[nH]c3cc(OC)c(OC)cc3c2=O)cc1" yielded viability at 10 µM of 97.2

* * *

# System: HCT-15
# TEST DETAILS: MTT test, cytotoxic activity on non-clonogenic cell lines
# Type: cell-based
# CONDITION CONTEXT: Homo sapiens, HCT-16, 10^−5 M, 72 hours incubation, MTT, mean value, read-out: mean optical density, expressed as percentage relative to the mean optical density under the control condition (100%)
I'd be grateful if you could share measured viability at 10 µM for these entries.
// units = %; emit number, no label

"COc1ccc(-c2cn(CCN(C)C)c3cc(OC)ccc3c2=O)cc1" yielded viability at 10 µM of 101

"COc1ccc(-c2cn(C)c3cc(OC)cc(N4CCN(C)CC4)c3c2=O)cc1" yielded viability at 10 µM of 101

"CC(=O)Oc1ccc(-c2cn(C)c3c(OC(C)=O)ccc(OC(C)=O)c3c2=O)cc1" yielded viability at 10 µM of 53.7

"CCOC(=O)Cn1cc(-c2ccc(OC)cc2)c(=O)c2ccc(OC)cc21" yielded viability at 10 µM of 165

"COc1ccc(-c2cn(C)c3cc(OC)ccc3c2=O)cc1" yielded viability at 10 µM of 111

"COc1ccc(-c2cn(C)c3cc(OC)cc(N)c3c2=O)cc1" yielded viability at 10 µM of 88.5

"CCN(CC)C(=O)Cn1cc(-c2ccc(OC)cc2)c(=O)c2ccc(OC)cc21" yielded viability at 10 µM of 96.1

"COc1ccc(-c2cn(CCCC#N)c3cc(OC)ccc3c2=O)cc1" yielded viability at 10 µM of 95.5

"COc1ccc(-c2cn(C)c3cc(OC)cc(NCCN(C)C)c3c2=O)cc1" yielded viability at 10 µM of 77.4

All figures here come from patent US6645983B1.
